Target: 5-HT3 (Homo sapiens)
Sequence (P46098 24-478): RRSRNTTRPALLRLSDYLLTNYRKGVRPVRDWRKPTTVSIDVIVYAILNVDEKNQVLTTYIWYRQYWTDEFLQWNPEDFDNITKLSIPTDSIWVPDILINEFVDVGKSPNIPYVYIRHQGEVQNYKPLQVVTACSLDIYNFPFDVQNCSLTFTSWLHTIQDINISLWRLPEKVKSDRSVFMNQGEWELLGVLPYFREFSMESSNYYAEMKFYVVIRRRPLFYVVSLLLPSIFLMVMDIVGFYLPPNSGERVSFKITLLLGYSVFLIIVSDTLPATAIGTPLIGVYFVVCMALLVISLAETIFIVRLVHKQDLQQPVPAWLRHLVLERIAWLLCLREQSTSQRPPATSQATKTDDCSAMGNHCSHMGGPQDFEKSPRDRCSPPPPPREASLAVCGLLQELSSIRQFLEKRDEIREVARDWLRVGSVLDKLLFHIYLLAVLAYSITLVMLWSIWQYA
Assay: Compound affinity for the human 5-HT3 receptor (Assay B), SPA radioligand binding with [9-methyl-3H]BRL-43694
Parameters: purchased Perkin Elmer
Conditions: Assay B (method B unless otherwise annotated); read-out: 5-HT3 Ki
Structures can show the parent of a compound that is named as a salt.
Task for the reader: assign each of the following compounds its reported Ki.
Numbers only, in nM.

compound="CN1[C@@H]2CCC[C@H]1C[C@@H](NC(=O)c1cccc3oc(N4CCCCC4)nc13)C2 [Example 3, Hydrochloride]" reportedproperty=Ki displayunit=nM reportedresult=10.4
compound="COc1ccccc1Nc1nc2c(C(=O)N[C@H]3C[C@H]4CCC[C@@H](C3)N4C)cccc2o1 [Example 64, Hydrochloride]" reportedproperty=Ki displayunit=nM reportedresult=16.2
compound="CC[C@H]1COC[C@H](C)N1c1nc2c(C(=O)NC3CC4CCCC(C3)N4C)cccc2o1 (stereo partly shown) [Example 87, Hydrochloride]" reportedproperty=Ki displayunit=nM reportedresult=1

Lab note: each compound below needs its Ki filled in.
1. CN1[C@@H]2COC[C@H]1C[C@@H](NC(=O)c1cccc3oc(N4CCOCC4)nc13)C2 [Example 44, Hydrochloride]
2. Nc1nc2c(C(=O)NC3CN4CCC3CC4)c(F)ccc2o1 (stereo not shown) [Example 139, Hydrochloride]
3. C=CCN1C[C@H](C)N(c2nc3c(C(=O)NC4CC5CCCC(C4)N5C)cccc3o2)C[C@H]1C (relative stereo) [Example 147, Dihydrochloride]
4. C[C@@H]1CN(c2nc3c(C(=O)N[C@@H]4CN5CCC4CC5)cccc3o2)C[C@H](C)O1 [Example 18, Hydrochloride]

Result:
1. 323
2. 67.4
3. 10.8
4. 443

---

Task for the reader: assign each of the following compounds its reported log10 of Ki.
Target: UniProt:P46098
Assay: Compound affinity for the human 5-HT3 receptor (Assay B), SPA radioligand binding with [9-methyl-3H]BRL-43694
Design: purchased Perkin Elmer
Conditions: Assay B (method B unless otherwise annotated); read-out: 5-HT3 Ki
Structures can show the parent of a compound that is named as a salt.
Remember, log10 of Ki, in nM.

Below, each entry is followed by its recorded log10 of Ki result.
compound="C[C@H]1COC[C@H](C)N1c1nc2c(C(=O)NC3CC4CCCC(C3)N4)cccc2o1 (stereo partly shown) [Example 81, Hydrochloride]" reportedproperty="log10 of Ki" reportedresult=1.23
compound="C[C@H]1CN(C)C(=O)[C@H](C)N1c1nc2c(C(=O)NC3CN4CCC3CC4)cccc2o1 (stereo partly shown) [Example 124, Hydrochloride]" reportedproperty="log10 of Ki" reportedresult=1.25
compound="CC(C)OC(=O)N1C[C@H](C)N(c2nc3c(C(=O)NC4CC5CCCC(C4)N5C)cccc3o2)[C@@H](C)C1 (stereo partly shown) [Example 143, Hydrochloride]" reportedproperty="log10 of Ki" reportedresult=0.15
compound="COC(=O)N1C[C@H](C)N(c2nc3c(C(=O)NC4CC5CCCC(C4)N5C)cccc3o2)[C@@H](C)C1 (stereo partly shown) [Example 125, Hydrochloride]" reportedproperty="log10 of Ki" reportedresult=0.32
compound="CN1[C@@H]2CCC[C@H]1C[C@@H](NC(=O)c1cccc3oc(=O)[nH]c13)C2 [Example 56, Hydrochloride]" reportedproperty="log10 of Ki" reportedresult=1.86

Lab note: each compound below needs its log10 of Ki filled in.
1. CC1CNCCN1c1nc2c(C(=O)NC3CN4CCC3CC4)cccc2o1 (stereo not shown) [Example 26, Dihydrochloride]
2. CN1C2CCCC1CC(NC(=O)c1cccc3oc(N4CCN[C@H]5CCCC[C@@H]54)nc13)C2 (stereo partly shown) [Example 126, Dihydrochloride]

Result:
1. 2.38
2. 1.22
